- System: Chordin-like protein 2 (CHRDL2)
- experimental.details: CHRDL2 small-molecule binders, primary screen, biochemical, small-molecule microarray, 635 nm fluorescence (AID 1126);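 note: printed compound slides probed with Chrdl2 protein at 4 µg/mL for 1 h at 4 C; score merges 667 nm emission intensity with signal to noise over three replicate slides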
- condition.details: small-molecule microarray binding, fluorescence 635 nm; higher = more signal
Listing of entries alongside the reported composite z-score.
Write no unit; give the number alone.

Known composite z-score results, listed for orientation:
[[record]]
compound = "C=CCNC(=O)[C@H]1[C@@H]2C(=O)O[C@@H](c3ccccc3)[C@@H](c3ccccc3)N2[C@@H](c2ccccc2OCCO)[C@]12C(=O)Nc1ccc(C#CCCO)cc12"
assay_readout = "composite z-score"
recorded_number = -0.0022

[[record]]
compound = "CCCCCN1CC=CC23O[C@@H]4C=CCCOC(=O)C4[C@H]2C(=O)N(CCCCCO)[C@@H]3C1=O (stereo not given in full)"
assay_readout = "composite z-score"
recorded_number = -0.17

[[record]]
compound = "C=CC[C@]1(C(=O)NCCCOC)N=C(c2ccc(OCCCO)cc2)O[C@H]1c1ccccc1CN=[N+]=[N-]"
assay_readout = "composite z-score"
recorded_number = -0.257

[[record]]
compound = "CN1C(=O)C2C=CC(C(O)c3ccco3)N(Nc3ccccc3)C2C1=O (stereo not given)"
assay_readout = "composite z-score"
recorded_number = 0.685

[[record]]
compound = "C[C@@]1([C@@H](NC(=O)c2ccc(-c3ccccc3)cc2)c2ccc(Cl)cc2)C[C@H]1C1CCCCC1"
assay_readout = "composite z-score"
recorded_number = -0.564


Query: Reported composite z-score, compound `COC(=O)[C@@]1(Cc2ccc(OC)cc2)[C@H]2c3cc(C(=O)N(C)C)n(CCc4ccccn4)c3C[C@H]2CN1C(=O)c1ccccc1` : ____
Response: -0.764

----------
- test.target: E3 ubiquitin-protein ligase XIAP (Homo sapiens)
- experimental.details: XIAP binders, primary screen, biophysical, small-molecule microarray, fluorescence 635 nm (AID 1181);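 note: score merges 667 nm emission and signal to noise over triplicate slides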
- condition.details: small-molecule microarray binding, higher = more signal
assay.readout: composite z-score
Write no unit; give the number alone.

Known composite z-score results, listed for orientation:
[[record]]
compound = "O=C(NCCN1CCOCC1)[C@@H]1c2ccccc2C(=O)N(C2CCCCC2)[C@H]1c1ccc(CO)cc1"
assay_readout = "composite z-score"
recorded_number = -0.165

[[record]]
compound = "O=C1O[C@H](c2ccccc2)[C@H](c2ccccc2)N2[C@H]1[C@@H](C(=O)N1CCCCCCC1)[C@]1(C(=O)Nc3ccc(C#CCCO)cc31)[C@H]2c1ccccc1OCCO"
assay_readout = "composite z-score"
recorded_number = 2.87

[[record]]
compound = "CCCCCN1CC=CC23O[C@@H]4/C=C\\CCC(C)OC(=O)C4[C@H]2C(=O)N(C(C)CO)[C@@H]3C1=O (stereo not given in full)"
assay_readout = "composite z-score"
recorded_number = -0.127


Query: Reported composite z-score, compound `CCCC[C@@H]1C[C@H]1[C@@H](NC(=O)c1cccs1)c1ccc(-c2ccccc2)cc1` : ____
Response: 0.416

Query: Reported composite z-score, compound OCCCC1=CC(c2cccs2)N(Cc2cc3c(cc2Br)OCO3)CC1 (stereo not given) : ____
Response: 0.019

Query: Reported composite z-score, compound `Cc1ccc([C@@H]2C[C@@H](Sc3ccccc3)[C@H](C(=O)O)CN2S(=O)(=O)c2ccc(C)cc2)cc1` : ____
Response: 0.312

Query: Reported composite z-score, compound `COC(=O)C(CC#Cc1ccc2c(c1)[C@]1(C(=O)N2)[C@H](C(=O)Nc2nc3ccccc3s2)[C@H]2C(=O)O[C@H](c3ccccc3)[C@H](c3ccccc3)N2[C@@H]1c1ccccc1OCCO)C(=O)OC` : ____
Response: 0.472

Query: Reported composite z-score, compound `C=CCNC(=O)[C@H]1[C@@H]2C(=O)O[C@@H](c3ccccc3)[C@@H](c3ccccc3)N2[C@@H](c2ccccc2OCCO)[C@]12C(=O)Nc1ccc(C#CCCO)cc12` : ____
Response: 1.02
